Each entry below carries its reported growth.
Tested on: HCC-2998 colon
Assay: NCI-60 one-dose screen, 48 h (100 = growth as untreated, 0 = no growth, -100 = all killed)
Conditions: 10 µM unless noted
Description: Growth inhibition of the HCC-2998 human tumor cell line is measured as a screen for anti-cancer activity. Cells are grown in 96 well plates and exposed to the test compound for 48 hours. Compounds are tested at a single concentration, which is 10^-5 M for most compounds. The reported endpoint is percent growth (GI% or GIPRCNT), where numbers from 0 - 100% represent growth inhibition, and numbers from -100% - 0 represent cell death. For example, a value of 40 represents 60% growth inhibition. […]
This is part of a sample that, as a whole, favours compounds with a hit. Of some 83,000 tested, about 20% had one in any assay. The source made the active and inactive calls. How the source made its calls: active means growth percent below 10; inactive means the rest.
experimental endpoint: growth

- C=CCCCCCCCCC(=O)[O][Sn]([CH2]CCC)([CH2]CCC)[CH2]CCC: -97.9% (active)
- CC12CCC3C(CCC4CC(=O)/C(=C\O)CC43C)C1CCC(=O)O2 (stereo unspecified): 101% (inactive)
- CCN(CC)c1ccc(CN(CC(=O)c2ccc(Cl)c(Cl)c2)Cc2ccccc2)cc1: 107% (inactive)
- O=[N+]([O-])c1ccc(N/N=C\c2ccccc2[N+](=O)[O-])nc1: 107% (inactive)
- Oc1ccccc1/C=N\Nc1ccccc1: 79.6% (inactive)
- COc1ccc2[nH]cc(/C=C3/C(=O)Nc4ccc(Cl)cc43)c2c1: 43.9% (inactive)

* * *

Test system: NCI/ADR-RES ovarian
Experiment: NCI-60 one-dose screen, 48 h (100 = growth as untreated, 0 = no growth, -100 = all killed)
Conditions: 10 µM unless noted
About 83,000 compounds went through this panel and 20% of them were active in at least one assay; those are over-represented in the sample as a whole.
Please use yes for growth under 9% and no for everything else, ties included.

* COC(=O)CC1=C(C)/C(=C/c2[nH]c(-c3ccc[nH]3)cc2OC)N=C1C | yes
* Clc1nc(Cl)c2ncn(-c3ccccc3)c2n1 | no
* Cc1c(C(N)=O)sc2ncn(Cc3ccccc3)c(=O)c12 | no
* O=C(Nc1cccc(C(F)(F)F)c1)Nc1ccc(OCc2nnc(-c3ccc(Cl)cc3)o2)c(F)c1 | no
* COc1ncc(-c2ccc3nccc(C#CCN4CCN(S(C)(=O)=O)CC4)c3c2)cc1NS(=O)(=O)c1ccc(F)cc1F | yes
* Nc1cc(Cl)c(S(N)(=O)=O)cc1S(N)(=O)=O | no

* * *

Measured growth accompanies every entry in the list below.
System: EKVX NSCLC
Assay: NCI-60 one-dose screen, 48 h (100 = growth as untreated, 0 = no growth, -100 = all killed)
Conditions: 10 µM unless noted
This is part of a sample that, as a whole, favours compounds with a hit. Of some 83,000 tested, about 20% had one in any assay.
experimental endpoint: growth (%)

• COc1cc(C2NC(c3ccc(Cl)cc3)C(C)/C(=N/NC(N)=S)C2C)cc(OC)c1OC (configuration not stated) = 107
• Cn1cc(-c2csc(-c3c[nH]c4ncccc34)n2)c2cc(F)cnc21 = 51.9
• COc1cc(/C=C2\COc3ccc(O)c(O)c3C2=O)cc(OC)c1 = 56.4
• CCCCC(C#N)C(N)=O (configuration not stated) = 132
• c1ccc(N2CCN(c3nncc4ccccc34)CC2)nc1 = 110
• CSc1ncc2ncn(C3OC(CO)C(O)C3O)c2n1 (configuration not stated) = 107
• Cc1ccsc1/C=C/C1=NCCCN1C = 99.5
• O=C1NCN(CCO)CN1 = 98.9
• COc1cc(C2C=C(c3ccc(C)cc3)Nc3nc(SC)[nH]c(=O)c32)ccc1Oc1ccnc2cc(Cl)ccc12 (configuration not stated) = 77
• CC(C)C(=O)Cc1cnccn1 = 99.4
• O=C(Nc1nc2ccccc2s1)c1cc(-c2ccc(F)cc2)n2nc(-c3ccccc3)cc2n1 = 68.8
• CCOc1cccc(C2CC(=O)Nc3cc4c(cc32)OCO4)c1 (configuration not stated) = 83.8
• Cc1c(C(N)=O)sc2ncn(Cc3ccccc3)c(=O)c12 = 122
• COc1ccc2c(c1)nc(N)c1c3cc(C)c(C)cc3cn21 = 72
• C=C(C)[C@@H]1C[C@H](O)Cc2cc(Cl)cc(Cl)c2N1 = 84.3
• O=c1ccn(C2OC(CO)C(O)C2F)c(=O)[nH]1 (configuration not stated) = 102
• CC[N+](CC)(CCOCCOCC[N+](CC)(CC)Cc1ccc([N+](=O)[O-])cc1)Cc1ccc([N+](=O)[O-])cc1 = 101
• CCCCc1nc(Cl)c(CO)n1Cc1ccc(-c2ccccc2-c2nn[nH]n2)cc1 = 88.1
• CC(C)[O-].CC(C)[O-].CN(CCN(C)Cc1cc(F)cc(F)c1[O-])Cc1cc(F)cc(F)c1[O-].[Ti+4] = -8.9
• COc1ccc2c3c(c(OCCCN(C)C)nc2c1)-c1ccc(Cl)cc1C3=O = 21.3
• COc1ccc(-n2nc3c(c2-c2ccc(OC)c(OC)c2)-c2oncc2CC3)cc1 = 92.6
• CC(C)(C)c1ccc(C(O)CCCN2CCC(C(O)(c3ccccc3)c3ccccc3)CC2)cc1 (configuration not stated) = 28.3

* * *

Test system: HOP-62 NSCLC
Experiment: NCI-60 one-dose screen, 48 h (100 = growth as untreated, 0 = no growth, -100 = all killed)
Conditions: 10 µM unless noted
The panel holds about 83,000 compounds, 20% with a hit somewhere; the sample as a whole holds those more often.
experimental endpoint: growth (%)

• O=C(/C(=C/c1cccc([N+](=O)[O-])c1)c1ccccc1)c1ccccc1 = 91.2
• CC(C)C/C(=N\NC(=O)c1ccncc1)c1cc(Cl)ccc1O = 30.6
• CSC1=Nc2c(c(C)c(-c3ccccc3)n2CCCN2CCCCC2)C2=NC(=O)C[C@H](C)N12 = 81.6
• Nc1nonc1-c1nc2ccccc2n1CC(=O)Nc1ccc2c(c1)COC2=O = 83.8
• Nc1ccc(C2=NN(c3ccccc3)C(c3ccc(Cl)cc3)C2)cc1 (stereo not given) = 87.2
• CSc1nc2c(c(=O)[nH]1)C(c1ccc(Cl)cc1)C1=C(N2)/C(=C/c2ccc(Cl)cc2)CNC1 (stereo not given) = -2.54
• O=C(/C=C/c1ccc(O)c(O)c1)N1CCN(c2ccc(Cl)cc2)CC1 = 88.2
• CCOc1cc(-c2ccc[nH]2)[nH]c1/C=C1\N=C(C)C(C(=O)OC)=C1C = -58
• COC(=O)C[C@@H]1CC=CC(=O)/C1=C(O)/C=C/c1ccccc1 = -42.8
• Cn1[nH]cc(/C=N/C(N)=O)c1=O = 111

* * *

Test system: OVCAR-8 ovarian
Test: NCI-60 one-dose screen, 48 h
Settings: 10 µM unless noted
Method: Growth inhibition of the OVCAR-8 human tumor cell line is measured as a screen for anti-cancer activity. Cells are grown in 96 well plates and exposed to the test compound for 48 hours. Compounds are tested at a single concentration, which is 10^-5 M for most compounds. The reported endpoint is percent growth (GI% or GIPRCNT), where numbers from 0 - 100% represent growth inhibition, and numbers from -100% - 0 represent cell death. For example, a value of 40 represents 60% growth inhibition. […]
This is part of a sample that, as a whole, favours compounds with a hit. Of some 83,000 tested, about 20% had one in any assay. Calls of active or inactive are those of the source. Rule for the calls: active = growth percent below 10; inactive = the rest.
Outcome codes: active, inactive

- Clc1nc(Cl)c2ncn(-c3ccccc3)c2n1: inactive
- CCCCCCOc1ccc(/C=N/NC(N)=S)cc1: inactive
- Clc1ccc2c(Nc3ccc4oc(NCCN5CCCC5)nc4c3)ccnc2c1: inactive
- CCc1ccc(CCN2C(=O)c3ccccc3C2=O)nc1: inactive
- c1csc([C@@H]2C[C@@H]3Cc4ccc5ccccc5c4N2O3)c1: inactive
- CC(C)[C@]12O[C@H]1[C@@H]1O[C@]13[C@]1(O[C@H]1C[C@H]1C4=C(CC[C@@]13C)C(=O)OC4)[C@@H]2OC(=O)CN(C)C: inactive
- CC(=O)Nc1ccc2c(c1)Cc1c(F)c(F)c(F)c(F)c1-2: inactive
- COc1cc(OC)c2sc(-c3ccc(-n4cncc4-c4ccc(N)cc4)cc3)nc2c1: inactive
- COc1ccc2c(c1)C(=O)c1c-2c(=O)n(CCCCCCC(=O)NO)c2ccccc12: active
- O=C(Nc1nc(-c2ccc(Cl)cc2)cs1)c1cc(O)c(O)c(O)c1: inactive
- Clc1ccccc1[C@@H]1C[C@@H]2Cc3cc(Br)c4ccccc4c3N1O2: inactive
- C[n+]1ccc(Nc2ccc(NC(=O)c3ccc(Nc4cc[n+](C)c5ccc(N)cc45)cc3)cc2)cc1: inactive
- Nc1nonc1-c1nc2ccccc2n1CC(=O)Nc1ccc2c(c1)COC2=O: inactive
- C=C1CC[C@@H]2[C@](C)(COC(C)=O)[C@H](OC(C)=O)CC[C@@]2(C)[C@@H]1CC(Nc1ccc(S(=O)(=O)Nc2cc(C)on2)cc1)C1=CCOC1=O (stereo not given in full): inactive
- COC(=O)CCC1=C(CC(=O)OC)C(C)=N/C1=C\c1[nH]c(-c2ccc[nH]2)cc1OC: active
- COc1ccc2c(c1)nc(N)c1c3cc(C)c(C)cc3cn21: inactive
- ClC1C2CC(c3ccccc32)C1Cl (stereo not given): inactive
- Cn1c(=O)c2nc(SCc3ccccc3)n(C)c2n(C)c1=O: inactive
- O=C(N1CCC(CN=c2cc3n(-c4ccc(Cl)cc4)c4ccccc4nc-3cc2Nc2ccc(Cl)cc2)CC1)N1CC1: active
- CCC1=C(c2ccc(OC)cc2)C(C)(C)Oc2cc(O)c(CN3CCCC3)cc21: inactive

Value source: PubChem BioAssay (NCI)
